# Tested on: Hela Human cervix adenocarcinoma cell-line
# measurement protocol: XTT cytotoxicity, Hela cervix adenocarcinoma cells
# Type: cell-based
# measurement setup: 72 hr
# Experimental: The piperazine-derivatives were prepared as a stock of 50 mM in 100% DMSO (dimethyl sulfoxide). Piperazine-derivatives were added at concentration ranging from 0.03-10 uM for 72 hours. Each experimental point was performed in triplicates. […] Optical density representing viable cells was determined using the XTT Cell Proliferation Kit assay (sodium 2,3,-bis(2-methoxy-4-nitro-5-sulfophenyl)-5-[(phenylamino)-carbonyl]-2H-tetrazolium inner salt, Biological industries, Beit-Haemek, Israel). […]
reported metric: pIC50
Answer as the number alone; pIC50 is minus log10 of concentration in mol/L.

Worked examples follow.
{"columns": ["molecule", "target", "pIC50"],
 "data": [
  ["O=C(N1CCN(c2c(F)cccc2F)CC1)N1c2ccccc2Oc2ccccc21 [Compound 5]", "Hela Human cervix adenocarcinoma cell-line", 6.40],
  ["O=C(N1CCN(c2c(F)c(F)c(F)c(F)c2F)CC1)N1c2ccccc2Oc2ccccc21 [Compound 2]", "Hela Human cervix adenocarcinoma cell-line", 5.72],
  ["O=C(C1c2ccccc2Sc2ccccc21)N1CCN(c2ccccc2)CC1 [Compound 3]", "Hela Human cervix adenocarcinoma cell-line", 6.30]
]}

Fill blank: measured pIC50 of the molecule O=C(N1CCN(c2ccccc2)CC1)N1c2ccccc2Oc2ccccc21 [Compound 1] is ____.
7.82

* * *

A collection of molecules and their measured IC50
# System: Panc-1 Human pancreatic carcinoma cell-line
# measurement protocol: XTT cytotoxicity, Panc-1 pancreatic carcinoma cells
# Format: cell-based
# measurement setup: Panc-1, XTT, 72 hr
// units = µM; emit number, no label

Worked examples follow.
{"columns": ["molecule", "target", "reading unit", "test result"],
 "data": [
  ["O=C(N1CCN(c2c(F)cccc2F)CC1)N1c2ccccc2Oc2ccccc21 [Compound 5]", "Panc-1 Human pancreatic carcinoma cell-line", "µM", 0.9],
  ["O=C(C1c2ccccc2Sc2ccccc21)N1CCN(c2ccccc2)CC1 [Compound 3]", "Panc-1 Human pancreatic carcinoma cell-line", "µM", 0.31]
]}

Here is the next item to consider.
Fill blank: measured IC50 of the molecule O=C(N1CCN(c2ccccc2)CC1)N1c2ccccc2Oc2ccccc21 [Compound 1] is ____.
0.01

* * *

# System: H358 Human lung carcinoma cell-line
# measurement protocol: XTT cytotoxicity, H358 lung carcinoma cells
# Assay type: cell-based
# measurement setup: NCI-H358, H358, XTT, 72 hr (Table 1), read-out: IC50 (XTT, 72 hr) Lung H358
A collection of compounds and their measured IC50
// units = nM; emit number, no label

Worked examples follow.
{"columns": ["chemical string", "target", "IC50 (nM)"],
 "data": [
  ["O=C(N1CCN(c2c(F)cccc2F)CC1)N1c2ccccc2Oc2ccccc21", "H358 Human lung carcinoma cell-line", 840],
  ["O=C(N1CCN(c2ccccc2)CC1)N1c2ccccc2Oc2ccccc21", "H358 Human lung carcinoma cell-line", 50]
]}

Here is the next item to consider.
Fill blank: measured IC50 of the compound O=C(C1c2ccccc2Sc2ccccc21)N1CCN(c2ccccc2)CC1 is ____.
1350

Values from patent US11084807B2
